- condition_parameters: Study 1, healthy subjects; oral metformin 500 mg, pitavastatin 2 mg (day 10) or caffeine 100 mg, efavirenz 50 mg, midazolam 2 mg, digoxin 0.25 mg (day 15) with i.v. rezafungin 400 mg; plasma, LC-MS/MS, NCA
- Description: Both were phase 1, single-center, open-label, crossover inpatient studies that were conducted in the United States in healthy adults (study 1, aged 26 to 55 years; study 2, aged 21 to 59 years). […] The primary analysis of the drug interaction effect on substrate drugs following rezafungin administration was assessed by the ratio of the geometric least-squares (LS) mean of each substrate drug administered with rezafungin to that without rezafungin. […]
Task for the reader: assign each of the following compounds its reported AUC0–t, geometric LSM value, + rezafungin.
Answers are plain numbers, in ng·h/mL.

Cc1ncc2n1-c1ccc(Cl)cc1C(c1ccccc1F)=NC2 ... 21.62

# context switch: different compound, same AUC0–t, geometric LSM value, + rezafungin
Problem: Entry `O=C(O)C[C@H](O)C[C@H](O)/C=C/c1c(C2CC2)nc2ccccc2c1-c1ccc(F)cc1` has what AUC0–t, geometric LSM value, + rezafungin?
Solution: 81.54

* * *

- target_or_test_system: CYP2C8 (Homo sapiens, UniProt P10632)
- Sequence (P10632 whole entry): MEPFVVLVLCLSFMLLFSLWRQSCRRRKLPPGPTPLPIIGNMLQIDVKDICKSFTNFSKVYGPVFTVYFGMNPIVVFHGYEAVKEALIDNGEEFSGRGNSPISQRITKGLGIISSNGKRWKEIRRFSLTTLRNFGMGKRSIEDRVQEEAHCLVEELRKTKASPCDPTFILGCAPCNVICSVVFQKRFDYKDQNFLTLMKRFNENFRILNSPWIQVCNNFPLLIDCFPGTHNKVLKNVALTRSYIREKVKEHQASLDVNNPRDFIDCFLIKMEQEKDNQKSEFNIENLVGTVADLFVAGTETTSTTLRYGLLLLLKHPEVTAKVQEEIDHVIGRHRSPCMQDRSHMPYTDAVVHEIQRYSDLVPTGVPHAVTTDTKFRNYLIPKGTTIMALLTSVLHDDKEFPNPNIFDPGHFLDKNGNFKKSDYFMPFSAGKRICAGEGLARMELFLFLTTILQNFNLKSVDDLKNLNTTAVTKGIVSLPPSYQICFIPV
- method_description: NC-012 CYP450 inhibition screening, recombinant CYP2C8
- Format: in vitro ADME
- condition_parameters: fluorogenic substrate, recombinant human CYP
Numbered stars: 1 amine (or outer) side, 2 acyl side, 3 side chain; on linkers, the order of the positions; unused ones are H or OH. Bridge positions count the residues as written; N and C are the ends. Square brackets hold non-standard residues; d marks the D form. Peptide text beside a SMILES is read from it. * marks the point of attachment. Orn(4R-OH,5R-OCH2CH2NMe3+) = C[N+](C)(C)CCO[C@@H](N[*:3])[C@H](O)C[C@H](N[*:1])C(=O)[*:2]; pTerphenylCO(4''-OnC5H11) = CCCCCOc1ccc(-c2ccc(-c3ccc(C(=O)*)cc3)cc2)cc1; hTyr(3S-OH,4S-OH) = N[C@H](C(=O)O)[C@H](O)[C@@H](O)c1ccc(O)cc1; Pro(3S-OH,4S-Me) = C[C@H]1CN[C@H](C(=O)O)[C@H]1O; Hyp = O=C(O)[C@@H]1C[C@@H](O)CN1
property: inhibition at 10 µM (%)
One number for each entry, in %.

Problem: Reported inhibition at 10 µM for CCCCCOc1ccc(-c2ccc(-c3ccc(C(=O)N[C@H]4C[C@@H](O)[C@@H](OCC[N+](C)(C)C)NC(=O)[C@@H]5[C@@H](O)[C@@H](C)CN5C(=O)[C@H]([C@@H](C)O)NC(=O)[C@H]([C@H](O)[C@@H](O)c5ccc(O)cc5)NC(=O)[C@@H]5C[C@@H](O)CN5C(=O)[C@H]([C@@H](C)O)NC4=O)cc3)cc2)cc1 [Rezafungin] ({pTerphenylCO(4''-OnC5H11)}-[Orn(4R-OH,5R-OCH2CH2NMe3+)]T[Hyp][hTyr(3S-OH,4S-OH)]T[Pro(3S-OH,4S-Me)]; lactam 1-C) : what is it?
Solution: 63

* * *

For each record, write down the corresponding AUC0–∞, geometric LSM value, + rezafungin.
- condition_parameters: Study 1, healthy subjects; oral metformin 500 mg, pitavastatin 2 mg (day 10) or caffeine 100 mg, efavirenz 50 mg, midazolam 2 mg, digoxin 0.25 mg (day 15) with i.v. rezafungin 400 mg; plasma, LC-MS/MS, NCA

Cn1c(=O)c2c(ncn2C)n(C)c1=O [Caffeine] ... 20,853.11 ng · h/mL
CN(C)C(=N)N=C(N)N [Metformin] ... 7,373.31 ng · h/mL

Moving on to the next molecule.
Problem: Quick one: AUC0–∞, geometric LSM value, + rezafungin of O=C1Nc2ccc(Cl)cc2[C@@](C#CC2CC2)(C(F)(F)F)O1 [Efavirenz] ?
Solution: 16,156.14 ng · h/mL

Values compiled from paper PMC10269561.
